Data credit: PubChem BioAssay (NCI)

- System: OVCAR-3 ovarian
- TEST_METHOD_NOTES: NCI-60 one-dose screen, 48 h
- PROTOCOL_CONDITIONS: 10 µM unless noted
- Description: Growth inhibition of the OVCAR-3 human tumor cell line is measured as a screen for anti-cancer activity. Cells are grown in 96 well plates and exposed to the test compound for 48 hours. Compounds are tested at a single concentration, which is 10^-5 M for most compounds. The reported endpoint is percent growth (GI% or GIPRCNT), where numbers from 0 - 100% represent growth inhibition, and numbers from -100% - 0 represent cell death. For example, a value of 40 represents 60% growth inhibition. […]
This is part of a sample that, as a whole, favours compounds with a hit. Of some 83,000 tested, about 20% had one in any assay. Active and inactive are the calls of the source. The calls were made as follows: active = growth percent below 10; inactive = the rest.
Would you mind answering with one of these outcomes? y = active, n = inactive

* CC(C)=CC1C(C(=O)OCc2cccc(Oc3ccccc3)c2)C1(C)C (stereo not drawn) | n
* CCOP(=O)(Cc1ccc(C#N)cc1)OCC | n
* Cc1c2cc(Cl)c3ccccc3c2c[n+]2ccccc12 | y

[ask] For C/C=C(\C)C(=O)O[C@@H]1C(O)[C@H]2OC(COC(=O)CCC(=O)CCCCCC[C@H](CCCCC)O[C@@H]3OC(C)[C@H](OC(C)=O)C(O)[C@H]3O2)[C@H]1OC(=O)/C=C/c1ccccc1 (stereo partly drawn) , what call appears in the results of this test?
[reply] n

[ask] Next compound: COC(=O)C1CCC(NC(=O)c2csc([C@@H](C[C@H](C(C)C)N(C)C(=O)[C@@H](NC(=O)[C@H]3CCCCN3C)C(C)C)OC(C)=O)n2)CC1 (stereo partly drawn)
[reply] y

[ask] Same read-out for COC(=O)[C@@H](C)C[C@H](Cc1ccccc1)NC(=O)c1nc([C@@H](C[C@H](C(C)C)N(C)C(=O)[C@@H](NC(=O)[C@H]2C[C@H](O)CCN2C)C(C)C)OC(C)=O)sc1C(C)C ?
[reply] y

[ask] Also, CCC1(C)CC(CCNCc2ccccc2O)(c2ccc(C)cc2)CCO1 (stereo not drawn) please.
[reply] n

[ask] Also, CC(C)(C)C(=O)OCOP(=O)(OCOC(=O)C(C)(C)C)C1CCCN(O)C1=O (stereo not drawn) please.
[reply] y

[ask] Same question, COc1ccc(/C=C\c2cc(OC)c(OC)c(OC)c2)cc1NC(=O)/C=C/c1cc(OC)c(OC)c(OC)c1 this time
[reply] n
